B1: TPR t1 (parent)
chain: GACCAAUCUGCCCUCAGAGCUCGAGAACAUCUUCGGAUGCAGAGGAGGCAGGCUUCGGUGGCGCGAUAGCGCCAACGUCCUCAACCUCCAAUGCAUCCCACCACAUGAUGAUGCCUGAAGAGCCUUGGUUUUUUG

Variants of: B1
PROCEDURE SUMMARY: polymerase ribozyme fitness, log enrichment relative to wild type (log ratio); higher = more active; in vitro selection for triplet polymerase activity
Label 1.0 when polymerase ribozyme fitness (log ratio) >= -3; otherwise 0.0.

>>> df
                     mutation_descriptor  answer_label
 0                 G42A A91C C123U U131A           1.0
 1                 A5G C104U G117C U130G           0.0
 2                        C12A C64U U81A           1.0
 3                            C62U U129A           1.0
 4                            G10U A111U           0.0
 5                             C3U U130G           1.0
 6  A5U C11A G42C C88U U106A A121C U125A           1.0
 7           G10A C97U C101U A105G U130G           0.0
 8                            A91U U109A           0.0
 9                   A18U G48U C64U C88U           1.0
10                 C22G G69U U112A A118U           1.0
11                             A75U C99U           0.0
12                             C53A A68U           0.0
13                 C15U G39A G117C G120A           0.0
14                             C72U G77U           1.0
15                            C40G U116C           1.0
16                       G47U G60U U112G           1.0
17                       G48A C70U C115A           1.0
18    A2C C11U C15U U55G G63U A90G A121G           1.0
19                            U59G U130G           1.0
